Tested on: PC-3 (Prostate Carcinoma)
Test: combination Emax (second highest fraction inhibited in the dose matrix, 72 h); higher = more inhibition; extreme values may be limits of the assay
As shown below, each of these molecules has a reported combination Emax value.
endpoint: combination Emax

- COc1nnc2ccc(N3CCC(c4ccc(OCCN5CCN(C)C(=O)[C@H]5C)cc4)CC3)nn12 [AZD5153] + Cn1cnc2c(F)c(Nc3ccc(Br)cc3Cl)c(C(=O)NOCCO)cc21 [Selumetinib] (first compound max 1 µM, 7x7, partner max 10 µM): 0.299
- C[C@@H](c1ccc2nccn2c1)n1nnc2ncc(-c3cnn(C)c3)nc21 [Savolitinib] + Cc1c2c(nn1C)CSCc1cc(n(C)n1)CSc1cc(c3ccccc3c1)OCCCc1c(C(=O)O)n(C)c3c-2c(Cl)ccc13 [AZD5991] (first compound max 1 µM, 7x7, partner max 1 µM): 0.121
- COc1cccc2c1C(=O)c1c(O)c3c(c(O)c1C2=O)C[C@@](O)(C(=O)CO)C[C@@H]3O[C@H]1C[C@H](N)[C@H](O)[C@H](C)O1 [Doxorubicin] + Cc1cc2ncnn2cc1Nc1ncc2c(n1)n(C1CCOCC1)c(=O)n2C [AZD7648] (first compound max 1 µM, 7x7, partner max 10 µM): 0.431
- Cc1cc2ncnn2cc1Nc1ncc2c(n1)n(C1CCOCC1)c(=O)n2C [AZD7648] + CN(C)CCCOc1ccc(-c2ccc3ncc4c(c3c2)n(C2CCOCC2)c(=O)n4C)cn1 [AZD0156] (first compound max 10 µM, 7x7, partner max 1 µM): 0.257

###

As shown below, each of these compounds has a reported Bliss excess value.
Test system: MOLM-13 (Acute Myeloid Leukemia)
Test: Bliss excess, mean over the matrix (fraction); higher = more synergy
endpoint: Bliss excess

- CN(C)CCCOc1ccc(-c2ccc3ncc4c(c3c2)n(C2CCOCC2)c(=O)n4C)cn1 [AZD0156] + CCN(CCO)CCCOc1ccc2c(Nc3cc(CC(=O)Nc4cccc(F)c4)[nH]n3)ncnc2c1 [AZD2811] (first compound max 1 µM, 7x7, partner max 1 µM): -0.0617
- CC(=O)Nc1cccc(-n2c(=O)n(C3CC3)c(=O)c3c(Nc4ccc(I)cc4F)n(C)c(=O)c(C)c32)c1 [Trametinib] + Cc1nc(-c2cn3c(n2)-c2ccc(-c4cnn(C(C)(C)C(N)=O)c4)cc2OCC3)n(C(C)C)n1 [Taselisib] (first compound max 1 µM, 7x7, partner max 10 µM): 0.215
- CN(CCO)CC[C@H](CSc1ccccc1)Nc1ccc(S(=O)(=O)NC(=O)c2ccc(N3CCC([C@@H](O)c4ccccc4-c4ccc(Cl)cc4)CC3)cc2)cc1S(=O)(=O)C(F)(F)F [AZD4320] + CCN(CCO)CCCOc1ccc2c(Nc3cc(CC(=O)Nc4cccc(F)c4)[nH]n3)ncnc2c1 [AZD2811] (first compound max 1 µM, 7x7, partner max 1 µM): 0.0171

###

Test system: SUP-B15 (B-Lymphoblastic Leukemia)
Assay: Bliss excess, mean over the matrix (fraction); higher = more synergy
As shown below, each of these molecules has a reported Bliss excess value.
endpoint: Bliss excess

* CC1(C)CCC(CN2CCN(c3ccc(C(=O)NS(=O)(=O)c4ccc(NCC5CCOCC5)c([N+](=O)[O-])c4)c(Oc4cnc5[nH]ccc5c4)c3)CC2)=C(c2ccc(Cl)cc2)C1 [Venetoclax] + Cc1cc2ncnn2cc1Nc1ncc2c(n1)n(C1CCOCC1)c(=O)n2C [AZD7648] (first compound max 1 µM, 7x7, partner max 10 µM) | -0.0374
* COc1cccc(OCCCN)c1-c1cc(Nc2cnc(C#N)cn2)n[nH]1 [Prexasertib] + CCc1c2c(nc3ccc(O)cc13)-c1cc3c(c(=O)n1C2)COC(=O)[C@]3(O)CC [SN-38] (first compound max 1 µM, 7x7, partner max 0.3 µM) | -0.0197

###

System: G-361 (Melanoma)
Assay: Bliss excess, mean over the matrix (fraction); higher = more synergy
endpoint: Bliss excess

- CN(CCO)CC[C@H](CSc1ccccc1)Nc1ccc(S(=O)(=O)NC(=O)c2ccc(N3CCC([C@@H](O)c4ccccc4-c4ccc(Cl)cc4)CC3)cc2)cc1S(=O)(=O)C(F)(F)F [AZD4320] + Cc1cc2ncnn2cc1Nc1ncc2c(n1)n(C1CCOCC1)c(=O)n2C [AZD7648] (first compound max 1 µM, 7x7, partner max 10 µM): -0.0444
- CCN(CCO)CCCOc1ccc2c(Nc3cc(CC(=O)Nc4cccc(F)c4)[nH]n3)ncnc2c1 [AZD2811] + C=CCn1c(=O)c2cnc(Nc3ccc(N4CCN(C)CC4)cc3)nc2n1-c1cccc(C(C)(C)O)n1 [AZD1775] (first compound max 1 µM, partner max 1 µM): -0.0162
- COc1nnc2ccc(N3CCC(c4ccc(OCCN5CCN(C)C(=O)[C@H]5C)cc4)CC3)nn12 [AZD5153] + C=CCn1c(=O)c2cnc(Nc3ccc(N4CCN(C)CC4)cc3)nc2n1-c1cccc(C(C)(C)O)n1 [AZD1775] (first compound max 1 µM, partner max 1 µM): -0.0271
- COc1nnc2ccc(N3CCC(c4ccc(OCCN5CCN(C)C(=O)[C@H]5C)cc4)CC3)nn12 [AZD5153] + Cc1c2c(nn1C)CSCc1cc(n(C)n1)CSc1cc(c3ccccc3c1)OCCCc1c(C(=O)O)n(C)c3c-2c(Cl)ccc13 [AZD5991] (first compound max 1 µM, 7x7, partner max 1 µM): 0.0501
- COc1cc2ncnc(Nc3ccc(F)c(Cl)c3)c2cc1OCCCN1CCOCC1 [Gefitinib] + CC(C)n1c(=O)n(C)c2cnc3cc(F)c(-c4ccc(OCCCN5CCCCC5)nc4)cc3c21 [AZD1390] (first compound max 10 µM, 7x7, partner max 0.3 µM): -0.0718
- C=CCn1c(=O)c2cnc(Nc3ccc(N4CCN(C)CC4)cc3)nc2n1-c1cccc(C(C)(C)O)n1 [AZD1775] + O=C(c1cc(Cc2n[nH]c(=O)c3ccccc23)ccc1F)N1CCN(C(=O)C2CC2)CC1 [Olaparib] (first compound max 1 µM, partner max 10 µM): -0.0217
- CN(CCO)CC[C@H](CSc1ccccc1)Nc1ccc(S(=O)(=O)NC(=O)c2ccc(N3CCC([C@@H](O)c4ccccc4-c4ccc(Cl)cc4)CC3)cc2)cc1S(=O)(=O)C(F)(F)F [AZD4320] + C[C@@H]1COCCN1C2=NC(=NC(=C2)C3(CC3)[S@](=N)(=O)C)C4=C5C=CNC5=NC=C4 [AZD6738] (first compound max 1 µM, 7x7, partner max 10 µM): -0.0395

###

Test system: 8505C (Thyroid Gland Carcinoma)
Test: Bliss excess, mean over the matrix (fraction); higher = more synergy
As shown below, each of these compounds has a reported Bliss excess value.
endpoint: Bliss excess

- C[C@@H]1COCCN1c1cc(C2([S@](C)(=N)=O)CC2)nc(-c2ccnc3[nH]ccc23)n1 [AZD6738] + O=C(c1cc(Cc2n[nH]c(=O)c3ccccc23)ccc1F)N1CCN(C(=O)C2CC2)CC1 [Olaparib] (first compound max 10 µM, 7x7, partner max 10 µM): 0.0004
- Cc1c2c(nn1C)CSCc1cc(n(C)n1)CSc1cc(c3ccccc3c1)OCCCc1c(C(=O)O)n(C)c3c-2c(Cl)ccc13 [AZD5991] + C[C@@H]1COCCN1C2=NC(=NC(=C2)C3(CC3)[S@](=N)(=O)C)C4=C5C=CNC5=NC=C4 [AZD6738] (first compound max 1 µM, 7x7, partner max 10 µM): 0.0148
- NC1(C(=O)N[C@@H](CCO)c2ccc(Cl)cc2)CCN(c2ncnc3[nH]ccc23)CC1 [Capivasertib] + COc1nnc2ccc(N3CCC(c4ccc(OCCN5CCN(C)C(=O)[C@H]5C)cc4)CC3)nn12 [AZD5153] (first compound max 10 µM, 7x7, partner max 1 µM): 0.0008
- CCN(CCO)CCCOc1ccc2c(Nc3cc(CC(=O)Nc4cccc(F)c4)[nH]n3)ncnc2c1 [AZD2811] + C[C@@H]1COCCN1C2=NC(=NC(=C2)C3(CC3)[S@](=N)(=O)C)C4=C5C=CNC5=NC=C4 [AZD6738] (first compound max 1 µM, 7x7, partner max 10 µM): -0.0514

###

As shown below, each of these compounds has a reported Bliss excess value.
System: OCI-AML3 (Acute Myeloid Leukemia)
Experiment: Bliss excess, mean over the matrix (fraction); higher = more synergy
endpoint: Bliss excess

* Cc1c2c(nn1C)CSCc1cc(n(C)n1)CSc1cc(c3ccccc3c1)OCCCc1c(C(=O)O)n(C)c3c-2c(Cl)ccc13 [AZD5991] + Nc1ccn([C@@H]2O[C@H](CO)[C@@H](O)C2(F)F)c(=O)n1 [Gemcitabine] (first compound max 1 µM, 7x7, partner max 0.3 µM) | 0.0245
* C[C@@H](Nc1cc(F)cc(F)c1)c1cc(C(=O)N(C)C)cc2c(=O)cc(N3CCOCC3)oc12 [AZD8186] + C1CN(CCC1(C(=O)N[C@@H](CCO)C2=CC=C(C=C2)Cl)N)C3=NC=NC4=C3C=CN4 [AZD5363] (first compound max 10 µM, 7x7, partner max 10 µM) | 0.031
* Cc1c2c(nn1C)CSCc1cc(n(C)n1)CSc1cc(c3ccccc3c1)OCCCc1c(C(=O)O)n(C)c3c-2c(Cl)ccc13 [AZD5991] + CC(=O)O[C@H]1C(=O)[C@@]2(C)[C@H]([C@H](OC(=O)c3ccccc3)[C@]3(O)C[C@H](OC(=O)[C@H](O)[C@@H](NC(=O)c4ccccc4)c4ccccc4)C(C)=C1C3(C)C)[C@]1(OC(C)=O)CO[C@@H]1C[C@@H]2O [Paclitaxel] (first compound max 1 µM, 7x7, partner max 3 µM) | 0.0141
